# protocol-notes: Effect of food on plasma pharmacokinetics after single oral dose of SF2a/b (Example 2)
# Type: in vivo, human
# measurement-parameters: both sexes, human, plasma, oral, 800 mg, Treatment D: single 800 mg (SF2b), fasted; read-out: AUClast, Mean

- compound: "COc1cc(NC(C(=O)c2c[nH]c3ccc(OC(F)(F)F)cc23)c2ccc(Cl)cc2OC)cc(S(C)(=O)=O)c1 (stereo not shown)"
  AUC(0-t), µg·h/mL: 149

* * *

# protocol-notes: Plasma pharmacokinetics with loading dose and weekly or twice weekly maintenance dosing, fed (Example 5)
# Type: in vivo, human
# measurement-parameters: human, plasma, oral, Panel I (450 mg BID Days 1-2, then 900 mg Q7D; SF2a/b, fed), Day 24; read-out: Mean AUC72 h (SD)

- compound: "COc1cc(NC(C(=O)c2c[nH]c3ccc(OC(F)(F)F)cc23)c2ccc(Cl)cc2OC)cc(S(C)(=O)=O)c1 (stereo not shown)"
  units-symbol: "µg·h/mL"
  AUC(0-t): 195

* * *

# protocol-notes: Plasma pharmacokinetics with loading dose and weekly or twice weekly maintenance dosing, fed (Example 5)
# Type: in vivo, human
# measurement-parameters: human, plasma, oral, Panel III (150 mg BID Days 1-2, then 300 mg Q7D; SF2a/b, fed), Day 17; read-out: Mean Cmax (SD)
# Method: A pharmaceutical formulation comprising Compound (a) as described in Example 2 (SF2a/b) was administered as an oral dosage form, to healthy adult participants, in a fed state. […]

- compound: "COc1cc(NC(C(=O)c2c[nH]c3ccc(OC(F)(F)F)cc23)c2ccc(Cl)cc2OC)cc(S(C)(=O)=O)c1 (stereo not shown) [Compound (a)]"
  Cmax / ng/mL: 2050

* * *

# protocol-notes: Plasma pharmacokinetics with loading dose and weekly or twice weekly maintenance dosing, fed (Example 5)
# Type: in vivo, human
# measurement-parameters: human, plasma, oral, Panel III (150 mg BID Days 1-2, then 300 mg Q7D; SF2a/b, fed), Day 24; read-out: Mean AUC72 h (SD)
property-name: AUC(0-t) (ng·h/mL)

- molecule: "COc1cc(NC(C(=O)c2c[nH]c3ccc(OC(F)(F)F)cc23)c2ccc(Cl)cc2OC)cc(S(C)(=O)=O)c1 (stereo not shown) [Compound (a)]"
  recorded-measurement: 92500

* * *

# protocol-notes: Plasma pharmacokinetics with loading dose and weekly or twice weekly maintenance dosing, fed (Example 5)
# Type: in vivo, human
# measurement-parameters: human, plasma, oral; Panel I (450 mg BID Days 1-2, then 900 mg Q7D; SF2a/b, fed), Day 3; read-out: Mean C72 h (SD)
# Method: A pharmaceutical formulation comprising Compound (a) as described in Example 2 (SF2a/b) was administered as an oral dosage form, to healthy adult participants, in a fed state. […]
property-name: concentration at 72 h (ng/mL)

- molecule: "COc1cc(NC(C(=O)c2c[nH]c3ccc(OC(F)(F)F)cc23)c2ccc(Cl)cc2OC)cc(S(C)(=O)=O)c1 (stereo not shown) [Compound (a)]"
  property-name: "concentration at 72 h"
  units-symbol: "ng/mL"
  recorded-measurement: 3440

* * *

# protocol-notes: Effect of food on plasma pharmacokinetics after single oral dose of SF2a/b (Example 2)
# Type: in vivo, human
# measurement-parameters: both sexes, human, plasma, oral, 50 mg, Treatment H: single 50 mg (SF2a), fasted; read-out: AUClast, Median
property-name: AUC(0-t) (ng·h/mL)

- compound: "COc1cc(NC(C(=O)c2c[nH]c3ccc(OC(F)(F)F)cc23)c2ccc(Cl)cc2OC)cc(S(C)(=O)=O)c1 (stereo not shown)"
  recorded-measurement: 18500

* * *

# protocol-notes: Plasma pharmacokinetics with loading dose and weekly or twice weekly maintenance dosing, fed (Example 5)
# Type: in vivo, human
# measurement-parameters: human, plasma, oral, Panel IV (150 mg BID Days 1-2, then 150 mg Q3D/Q4D; SF2a/b, fed), Day 2; read-out: tmax

- compound: "COc1cc(NC(C(=O)c2c[nH]c3ccc(OC(F)(F)F)cc23)c2ccc(Cl)cc2OC)cc(S(C)(=O)=O)c1 (stereo not shown)"
  Tmax: "5 h"

* * *

# protocol-notes: Effect of food on plasma pharmacokinetics after single oral dose of SF2a/b (Example 2)
# Assay type: in vivo, human
# measurement-parameters: both sexes, human, plasma, oral, 200 mg, Treatment F: single 200 mg (SF2b), fasted; read-out: Cmax, Geo. Mean

- molecule: "COc1cc(NC(C(=O)c2c[nH]c3ccc(OC(F)(F)F)cc23)c2ccc(Cl)cc2OC)cc(S(C)(=O)=O)c1 (stereo not shown)"
  Cmax [ng/mL]: 573

* * *

# protocol-notes: Effect of food on plasma pharmacokinetics after single oral dose of SF2a/b (Example 2)
# Format: in vivo, human
# measurement-parameters: both sexes, human, plasma, oral, 50 mg, Treatment H: single 50 mg (SF2a), fasted; read-out: t1/2, term, Mean (converted)

- compound: "COc1cc(NC(C(=O)c2c[nH]c3ccc(OC(F)(F)F)cc23)c2ccc(Cl)cc2OC)cc(S(C)(=O)=O)c1 (stereo not shown)"
  units-symbol: "h"
  half-life: 176

* * *

# protocol-notes: Plasma pharmacokinetics with loading dose and weekly or twice weekly maintenance dosing, fed (Example 5)
# Format: in vivo, human
# measurement-parameters: human, plasma, oral, 900 mg, Panel I (450 mg BID Days 1-2, then 900 mg Q7D; SF2a/b, fed), Day 3; read-out: Mean Cmax (SD)

- compound: "COc1cc(NC(C(=O)c2c[nH]c3ccc(OC(F)(F)F)cc23)c2ccc(Cl)cc2OC)cc(S(C)(=O)=O)c1 (stereo not shown) [Compound (a)]"
  units-symbol: "µg/mL"
  Cmax: 6.57

* * *

# protocol-notes: Effect of food on plasma pharmacokinetics after single oral dose of SF2a/b (Example 2)
# Format: in vivo, human
# measurement-parameters: both sexes, human, plasma, oral, 200 mg, Treatment G: single 200 mg (SF2b), fed, standardized breakfast; read-out: AUC∞, Median
property-name: AUC(0-inf)

- molecule: "COc1cc(NC(C(=O)c2c[nH]c3ccc(OC(F)(F)F)cc23)c2ccc(Cl)cc2OC)cc(S(C)(=O)=O)c1 (stereo not shown)"
  recorded-measurement: "95300 ng·h/mL"

* * *

# protocol-notes: Effect of food on plasma pharmacokinetics after single oral dose of SF2a/b (Example 2)
# Assay type: in vivo, human
# measurement-parameters: both sexes, human, plasma, oral, 800 mg, Treatment D: single 800 mg (SF2b), fasted; read-out: t1/2, term, Mean (converted)
property-name: half-life (h)

- compound: "COc1cc(NC(C(=O)c2c[nH]c3ccc(OC(F)(F)F)cc23)c2ccc(Cl)cc2OC)cc(S(C)(=O)=O)c1 (stereo not shown)"
  units-symbol: "h"
  recorded-measurement: 194

* * *

# protocol-notes: Effect of food on plasma pharmacokinetics after single oral dose of SF2a/b (Example 2)
# Type: in vivo, human
# measurement-parameters: both sexes, human, plasma, oral, 800 mg, Treatment E: single 800 mg (SF2b), fed, standardized breakfast; read-out: t1/2, term, Geo. Mean (converted)
# Procedure: The effect of food on the pharmacokinetics (PK) of Compound (a) was assessed in healthy participants after a single oral dose of SF2a/b, described in Example 1, administered at different dose levels in a randomized single dose, 2-period crossover study. […]

- compound: "COc1cc(NC(C(=O)c2c[nH]c3ccc(OC(F)(F)F)cc23)c2ccc(Cl)cc2OC)cc(S(C)(=O)=O)c1 (stereo not shown)"
  half-life: "166 h"

* * *

# protocol-notes: Effect of food on plasma pharmacokinetics after single oral dose of SF2a/b (Example 2)
# Assay type: in vivo, human
# measurement-parameters: both sexes, human, plasma, oral, 800 mg, Treatment E: single 800 mg (SF2b), fed, standardized breakfast; read-out: tmax, Median

- compound: "COc1cc(NC(C(=O)c2c[nH]c3ccc(OC(F)(F)F)cc23)c2ccc(Cl)cc2OC)cc(S(C)(=O)=O)c1 (stereo not shown) [Compound (a)]"
  Tmax: "6 h"

* * *

# protocol-notes: Plasma pharmacokinetics with loading dose and weekly or twice weekly maintenance dosing, fed (Example 5)
# Type: in vivo, human
# measurement-parameters: human, plasma, oral, 450 mg, Panel II (450 mg BID Days 1-2, then 450 mg Q3D/Q4D; SF2a/b, fed), Day 27; read-out: Mean Cmax (SD)

- compound: "COc1cc(NC(C(=O)c2c[nH]c3ccc(OC(F)(F)F)cc23)c2ccc(Cl)cc2OC)cc(S(C)(=O)=O)c1 (stereo not shown) [Compound (a)]"
  Cmax: "3980 ng/mL"

* * *

# protocol-notes: Effect of food on plasma pharmacokinetics after single oral dose of SF2a/b (Example 2)
# Format: in vivo, human
# measurement-parameters: both sexes, human, plasma, oral, 800 mg, Treatment E: single 800 mg (SF2b), fed, standardized breakfast; read-out: AUClast, Geo. Mean

- compound: "COc1cc(NC(C(=O)c2c[nH]c3ccc(OC(F)(F)F)cc23)c2ccc(Cl)cc2OC)cc(S(C)(=O)=O)c1 (stereo not shown) [Compound (a)]"
  AUC(0-t) [µg·h/mL]: 340
